# Tested on: MGC-803
# procedure-details: Antiproliferative activity against human MGC803 cells after 48 hrs by MTT assay
# Type: functional, cell-based
# measurement-setup: MGC-803, 48 h
Kindly supply the reported pIC50 values for the records listed here.
pIC50 field: float, defined as -log10 of concentration (mol/L).

Q. // Input: `Clc1ccc(Cn2cc(CSc3nnc(-c4ccccc4)c(-c4ccccc4)n3)nn2)cc1` . Output its pIC50 only.
A. 4.88

Q. // Input: `COc1ccc(C(=O)/C=C/c2ccc(-n3cc(CSc4nnc(-c5ccccc5)c(-c5ccccc5)n4)nn3)cc2)cc1` . Output its pIC50 only.
A. 4.44

Q. // Input: O=c1[nH]cc(F)c(=O)[nH]1 [FLUOROURACIL] . Output its pIC50 only.
A. 5.01

Q. // Input: `Fc1ccc(Cn2cc(CSc3nnc(-c4ccccc4)c(-c4ccccc4)n3)nn2)cc1` . Output its pIC50 only.
A. 5.12

Q. // Input: `Cc1ccc(Cn2cc(CSc3nnc(-c4ccccc4)c(-c4ccccc4)n3)nn2)cc1` . Output its pIC50 only.
A. 4.46

###

# System: MGC-803
# procedure-details: Antiproliferative activity against human MGC803 cells after 48 hrs by MTT assay
# Assay type: functional, cell-based
# measurement-setup: MGC-803, 48 h
pIC50: −log10 of the molar value.
Kindly supply the reported pIC50 values for the records listed here.

Q. // Input: `O=c1cc(OCCCn2cc(CSc3nnc(-c4ccccc4)c(-c4ccccc4)n3)nn2)c2ccccc2o1` . Output its pIC50 only.
A. < 4.00

Q. // Input: `c1ccc(-c2nnc(SCc3cn(Cc4ccc5ccccc5c4)nn3)nc2-c2ccccc2)cc1` . Output its pIC50 only.
A. < 4.00

Q. // Input: `O=c1ccc2ccc(OCCCn3cc(CSc4nnc(-c5ccccc5)c(-c5ccccc5)n4)nn3)cc2o1` . Output its pIC50 only.
A. < 4.00

Q. // Input: `COc1ccc(Cn2cc(CSc3nnc(-c4ccccc4)c(-c4ccccc4)n3)nn2)cc1` . Output its pIC50 only.
A. 4.64

Q. // Input: `C#CCSc1nnc(-c2ccccc2)c(-c2ccccc2)n1` . Output its pIC50 only.
A. < 4.00

Q. // Input: `NS(=O)(=O)c1ccc(-n2cc(CSc3nnc(-c4ccccc4)c(-c4ccccc4)n3)nn2)cc1` . Output its pIC50 only.
A. < 4.00

Q. // Input: `c1ccc(Cn2cc(CSc3nnc(-c4ccccc4)c(-c4ccccc4)n3)nn2)cc1` . Output its pIC50 only.
A. 4.95
